- TEST_SYSTEM: T1, P8A-bA
- T1 chain: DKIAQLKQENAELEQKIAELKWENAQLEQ
- ASSAY_PROTOCOL: two-hybrid library CCNG1;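 note: natural log of median RNA to DNA barcode read ratio; higher means stronger binding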
MEASUREMENT_NAME: interaction score
Numbers only.

Below is a list of binders. For each, state its recorded interaction score.
1. DKNAQLKQKIAELKQKIAELKWENAQLEQ [P12A-bA]
2. DKNAQLKQEIAELEQENAELEWKIAQLKQ [P6A-bA]
3. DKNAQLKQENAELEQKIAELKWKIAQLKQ [P10A-bA]
4. DENAQLEQEIAELEQEIAELEWKNAQLKQ [P11A-bA]
5. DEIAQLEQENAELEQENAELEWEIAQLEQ [P1A-bA]

[-1.32, 0.137, -0.165, -0.166, -0.805]

Below is a list of binders. For each, state its recorded interaction score.
1. DEIAQLEQKNAELKQEIAELEWKNAQLKQ [P7A-bA]
2. DKIAQLKQKNAELKQKNAELKWKIAQLKQ [P2A-bA]

1: 1.79; 2: -0.64

From: paper PMC10397247
